B1: TPR t1 (parent)
chain: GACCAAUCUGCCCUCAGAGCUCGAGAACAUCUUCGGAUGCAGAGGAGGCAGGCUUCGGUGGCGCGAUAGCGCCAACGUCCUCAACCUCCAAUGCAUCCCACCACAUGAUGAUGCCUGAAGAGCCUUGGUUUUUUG

Variants of: B1
Test: polymerase ribozyme fitness, log enrichment relative to wild type (log ratio); higher = more active; in vitro selection for triplet polymerase activity
Recorded polymerase ribozyme fitness (log ratio) split into classes 0 = under -4, 1 = from -4 up to -2, 2 = -2 and over

[[record]]
seq = "GACCAAUCUGCCCUCAGAGCUCGAGAACAUCUUCGGAUGCAGAGGAGGCAGGCUUGGGUGGCGCGAUAGCGCCAACGUCCUCAACCUCCAACGCAUCCCACCACAUGAUGAUGCCUGAAGAGCCUUGGUUUUUUG [C56G U92C]"
qualitative_label = 2


stdin: Category of GACCAAUCUGCACUCAGAGCUCGAGAACAUCUUCGGAUGCAGAGGAGGCAGGCUUCGGUGGCGCGAUAGCGCCAACGUCCUCAACAUCCAAUGCAUCCCACCACAUGAUGAUGCCUGAAGAGCCUUGGUUUUUUG [C12A C86A] , please.
stdout: 2

stdin: Category of GACCAAUUUGCCUUCAGAGCUCGAGAACAUCUUCCGAUGCAGAGGUGGCAGGCUUCGGUGGCGCGAUAGCGCCAACGUCCUCAACCUCCAAUGCAUCCCACCACAUGAUGAUGCAUGAAGAGCCUUGGUUUUUUG [C8U C13U G35C A46U C115A] , please.
stdout: 1

stdin: Category of GACCAAUCUGCGCUCAGAGCUCGAGAGCAUCUUCGGAUCCAGAGGAGGCAGGCUUCGGUGGCGCGAUAGCGCCAACGUCCUCAACCUCCAAUGCAUCCCACCACAUGAUGAUGCCUGAAGAGCCUUGGUUUUUUG [C12G A27G G39C] , please.
stdout: 1
